Test system: clinical P. aeruginosa isolates
Test: microbe, parasite or virus in culture
Settings: Pseudomonas aeruginosa, 18 h, read-out: Antibiotic sensibility (MIC) of clinical P. aeruginosa isolate AUMC-Pa-2, strain AUMC-Pa-2; antibiotic alone
Procedure: The bacterial strains, primers and plasmids used in this study are listed in S5 Table. […] Bacteria were cultured in LB medium or cation-adjusted Muller-Hinton broth (CA-MHB) at 37 °C with agitation at 220 rpm. All the antibiotics and chemical compounds used in this study were purchased from Sigma-Aldrich. […]
Rule: MIC below 8 µM gives class 1, anything at or above gives class 0.

>  <molecule>
CC[C@H]1OC(=O)[C@H](C)[C@@H](O[C@H]2C[C@@](C)(OC)[C@@H](O)[C@H](C)O2)[C@H](C)[C@@H](O[C@@H]2O[C@H](C)C[C@H](N(C)C)[C@H]2O)[C@](C)(OC)C[C@@H](C)C(=O)[C@H](C)[C@@H](O)[C@]1(C)O [Clarithromycin]

>  <experimental system>
clinical P. aeruginosa isolates

>  <assigned category>
class 0

$$$$
>  <molecule>
C[C@@H](O)[C@H]1C(=O)N2C(C(=O)O)=C(S[C@@H]3CN[C@H](C(=O)N(C)C)C3)[C@H](C)[C@H]12 [Meropenem]

>  <experimental system>
clinical P. aeruginosa isolates

>  <assigned category>
class 1

$$$$
>  <molecule>
CC1(C)S[C@@H]2[C@H](NC(=O)C(C(=O)O)c3ccccc3)C(=O)N2[C@H]1C(=O)O (stereo partly shown) [Carbenicillin]

>  <experimental system>
clinical P. aeruginosa isolates

>  <assigned category>
class 0

$$$$
>  <molecule>
CO/N=C(\C(=O)N[C@@H]1C(=O)N2C(C(=O)[O-])=C(C[N+]3(C)CCCC3)CS[C@H]12)c1csc(N)n1 [Cefepime]

>  <experimental system>
clinical P. aeruginosa isolates

>  <assigned category>
class 1

$$$$
>  <molecule>
CN(C)c1cc(NC(=O)CNC(C)(C)C)c(O)c2c1C[C@H]1C[C@H]3[C@H](N(C)C)C(O)=C(C(N)=O)C(=O)[C@@]3(O)C(O)=C1C2=O [Tigecycline]

>  <experimental system>
clinical P. aeruginosa isolates

>  <assigned category>
class 1

$$$$
>  <molecule>
CCn1cc(C(=O)O)c(=O)c2ccc(C)nc21 [Nalidixic Acid]

>  <experimental system>
clinical P. aeruginosa isolates

>  <assigned category>
class 0

$$$$
>  <molecule>
C[C@@H]1O[C@@H]1P(=O)(O)O [Fosfomycin]

>  <experimental system>
clinical P. aeruginosa isolates

>  <assigned category>
class 0

$$$$
>  <molecule>
CC(=O)NC[C@H]1CN(c2ccc(N3CCOCC3)c(F)c2)C(=O)O1 [Linezolid]

>  <experimental system>
clinical P. aeruginosa isolates

>  <assigned category>
class 0

$$$$

Data credit: paper PMC8445441
